For 3-phosphoinositide-dependent protein kinase 1 (Homo sapiens) (UniProt O15530), measured ΔTm is reported for the entries below.
Numbers only, in °C.

COc1ccc2c(c1)/C(=C/c1cnc[nH]1)C(=O)N2 :: 0.2

Below are some molecules; for each one, tell me its ΔTm.
1. Nc1nccc(-c2c(-c3ccc(F)cc3)ncn2C2CCNCC2)n1
2. O=C1NC(=O)c2c1c1c3ccccc3[nH]c1n1cncc21 [ISOGRANULATIMIDE]
3. c1ccc(-c2n[nH]c3c2oc2ccccc23)cc1
4. N#CCCc1ccc2c(c1)-c1[nH]c3ccc([N+](=O)[O-])cc3c1CC(=O)N2
5. COc1cc2c(cc1OC)-c1n[nH]c(Nc3cccc(F)c3)c1C2
6. N#C/C(=C\c1ccc(O)c(O)c1)C(=O)Nc1ccccc1

1. -0.2
2. 1.9
3. -0.5
4. -0.4
5. -0.2
6. -0.3

Values compiled from ChEMBL document CHEMBL1145498.
